# protocol.summary: cell viability in Huh7 cells, primary screen, cytotoxicity control for HCV replication inhibitor project, CellTiter-Glo luminescence, basal, 48 h (AID 1143);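 also: Huh7 hepatoma cells carrying a hepatitis C replication reporter with no stimulus; test concentration not given here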
# condition.notes: Huh7 HCV replicon, higher = more signal, called active from +8 up or from −8 down
value.type: z-score
Numbers only.

As a guide, the following entries are already answered.
compound	measured.number
CCOC(=O)[C@H](Cc1ccccc1)NC(=O)CCC1CC(OC(=O)NCc2cccc3ccccc23)CC2(CCCC(COC(=O)NCCc3ccccc3OC)O2)O1 (stereo not given in full)	-0.534
CC(C)C(=O)N[C@H]1CCCN1C(=O)C=Cc1ccccc1	0.623
C#CCCCON=C1C[C@@H](O)[C@@H](O)[C@@H]2[C@@H]3C(=O)N(C[C@@H]4CCCO4)C(=O)[C@@H]3CC[C@@H]12	0.0109
O=C1C[C@@H](O)[C@@H](O)[C@@H]2[C@@H]3C(=O)N(C4CCCCC4)C(=O)[C@@H]3CC[C@@H]12	0.0366
COC(=O)[C@H](C)NC(=O)CCC1CC(OC(=O)NCc2cccc3ccccc23)CC2(CCCC(COC(=O)NCCCN3CCCC3=O)O2)O1 (stereo not given in full)	-0.0671

Batch request: z-score for each of the following compounds.
1. O=C1C=C[C@@H](O)[C@@H]2[C@@H]3C(=O)N(Cc4ccc5c(c4)OCO5)C(=O)[C@@H]3CC[C@@H]12
2. O=C1[C@H]2[C@H]3[C@H](O)[C@H](O)CC(=NO[C@@H]4O[C@H](CO)[C@@H](O)[C@H](O)[C@H]4O)[C@@H]3CC[C@H]2C(=O)N1C1CCCCC1
3. C[C@]12CCC3c4ccc(OCC5CO5)cc4CCC3C1CC[C@@H]2O (stereo not given in full)

-0.655
0.0805
-1.78

Go through the items and report each one's z-score.
1. CC(C)=CCCC(C)=CCON=C1C[C@@H](O)[C@@H](O)[C@@H]2[C@@H]3C(=O)N(C4CCCCC4)C(=O)[C@@H]3CC[C@H]12
2. CC(C)CON=C1C[C@@H](O)[C@@H](O)[C@@H]2[C@@H]3C(=O)N(Cc4ccc5c(c4)OCO5)C(=O)[C@@H]3CC[C@@H]12
3. C=CC[C@@H]1C=C[C@H](ON=C(C)CCN2CCCc3nc(C)c(C)cc32)[C@@H](CO)O1

[-2.76, -0.415, -0.686]

Record z-score per entry; entries follow.
1. CCOC(=O)CCN1C(=O)[C@H]2[C@H]3[C@H](O)[C@H](O)CC(=NOCC=C(C)CCC=C(C)C)[C@@H]3CC[C@H]2C1=O
2. CCN1C(=O)[C@H]2[C@H]3[C@H](O)[C@H](O)CC(=NO[C@@H](C)c4cc(-c5c(C)cc(C)cc5C)no4)[C@@H]3CC[C@H]2C1=O

0.16
-1.74

# map each compound to its z-score
1. C[C@H]1C=CCC(=O)OC[C@H](C)C(=O)N2CCC[C@H]2C(=O)OC1
2. COC(=O)[C@H](C)NC(=O)CCC1CC(OC(=O)NCCc2ccc(F)cc2)CC2(CCCC(COC(=O)NCCOc3ccccc3)O2)O1 (stereo not given in full)

[-0.401, -0.471]

###

# protocol.summary: small-molecule microarray binders of probe aLefty2, primary screen, biochemical, biotinylated probe, 635/667 nm fluorescence (AID 1094);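 also: score merges spot fluorescence near 667 nm with spot signal-to-noise ratio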
# condition.notes: higher = more signal
value.type: composite z-score
Answers are plain numbers.

compound	composite z-score
COC(=O)[C@H](C)NC(=O)CCC1CC(OC(=O)NCCc2ccc(F)cc2)CC2(CCCC(COC(=O)NCCc3ccccc3OC)O2)O1 (stereo not given in full)	-0.0916
CCN1C(=O)[C@H]2[C@H]3[C@H](O)[C@H](O)CC(=NNC(=O)OCc4ccccc4)[C@@H]3CC[C@H]2C1=O	-0.044

Hi! Can you tell me composite z-score for each of these compounds?
1. Cc1ccc(S(=O)(=O)N[C@@H]2COC(=O)CC=C[C@@H](C)[C@H](NS(=O)(=O)c3ccc(C)cc3)COC(=O)[C@H](C)NC(=O)CC=C[C@H]2C)cc1
2. CO[C@@H](C(C)C)[C@@H](C)C1OC(=O)CC1O (stereo not given in full)
3. CON=C(C)CCN1CCc2nc(-c3ccccc3)c(-c3ccccc3)cc2C1
4. CCOC(=O)[C@H](CC(C)C)NC(=O)CCC1CC(OC(=O)NCCc2ccc(F)cc2)CC2(CCCC(COC(=O)NCCCN3CCCC3=O)O2)O1 (stereo not given in full)

1: -0.291; 2: -0.161; 3: -0.0699; 4: -0.132

Provide each entry's composite z-score from the list below.
1. CC(C)CON=C1C[C@@H](O)[C@@H](O)[C@@H]2[C@@H]3C(=O)N(Cc4ccccc4)C(=O)[C@@H]3CC[C@H]12
2. CC(C)(C)N1C(=O)[C@H]2[C@H]3[C@H](O)[C@H](O)CC(=NOC[C@@H](O)COCc4ccco4)[C@H]3CC[C@H]2C1=O

1: -0.117; 2: 0.0913

###

# protocol.summary: basal RPMI8226 viability, no added stimulus, profiling panel, cell-based, calcein-AM fluorescence, 48 h, PK04 Diversity Set (AID 1166);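 also: cells grown under basal conditions without added stimulus; test concentration not given here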
# condition.notes: RPMI8226 myeloma viability, higher = more signal
value.type: z-score
One number for each entry.

Consider the reported z-score for these molecules:
molecule	z-score
COC(=O)CC=C[C@@H](C)[C@@H](C=NOC[C@@H](O)COCc1ccco1)NS(=O)(=O)c1ccc(C)cc1	-0.623
C[C@@H](c1ccccc1)N1C(=O)[C@H]2[C@H]3[C@H](O)[C@H](O)CC(=NNC(=O)OCc4ccccc4)[C@@H]3CC[C@H]2C1=O	-0.253
COC(=O)[C@@H]1CC[C@H](C)[C@@H](c2ccc(C)cc2)N1C(=O)c1ccc(C=NOC[C@@H](O)[C@H]2O[C@@H]3OC(C)(C)O[C@@H]3[C@H]2O)cc1	-0.525
CCOC(=O)[C@H](Cc1ccccc1)NC(=O)CCC1CC(OC(=O)NCc2cccc3ccccc23)CC2(CCCC(COC(=O)NCC3CCCCC3)O2)O1 (stereo not given in full)	-0.68
COC(=O)[C@@H]1CC[C@H](C)[C@@H](c2ccc(Br)cc2)N1	0.0204
CCOC(=O)[C@H](CC(C)C)NC(=O)CCC1CC(OC(=O)NCc2ccc3c(c2)OCO3)CC2(CCCC(COC(=O)NCCc3ccccc3OC)O2)O1 (stereo not given in full)	-0.312
CCc1cc2c(nc1CC)CCN(CCC(C)=NOCC[C@@H]1C=C[C@H](OC(C)=O)[C@@H](COC(C)=O)O1)C2	0.123
CO[C@H]1COC(=O)[C@H](C)COC(=O)[C@H](C)NC(=O)CC=C[C@H]1C	0.286
COC(=O)C1=C(C)N(Cc2ccccc2)C2=C3C(=O)OCC[C@@H]3[C@@](O)(C(=O)OC)C(=O)N2[C@@H]1c1ccccc1	-0.755
COc1cccc([C@H](O)Cn2cc(-c3ccc(CON=C(C)C)cc3)nn2)c1	0.157

# map each molecule to its z-score
1. CC(=O)OC[C@H]1O[C@H](CC=NO[C@@H](C)c2cn([C@H](CO)Cc3ccccc3)nn2)C=C[C@@H]1OC(C)=O
2. O=C1[C@H]2[C@H]3[C@H](O)[C@H](O)CC(=NO[C@@H]4O[C@H](CO)[C@@H](O)[C@H](O)[C@H]4O)[C@H]3CC[C@H]2C(=O)N1c1ccc(F)cc1F
3. CC(C)=CCCC(C)=CCON=C1C[C@@H](O)[C@@H](O)[C@@H]2[C@@H]3C(=O)N(C4CCCCC4)C(=O)[C@@H]3CC[C@H]12
4. C[C@H]1CC[C@H]2C(=O)O[C@H](CO)CN2[C@@H]1c1ccc(Br)cc1
5. CC(C)CON=C1C[C@@H](O)[C@@H](O)[C@@H]2[C@@H]3C(=O)N(C(C)(C)C)C(=O)[C@@H]3CC[C@@H]12

[-0.812, -0.3, -0.201, -0.73, -0.289]

###

For each entry below, report its composite z-score value.
# test.target: Concanavalin-A (Canavalia ensiformis) (UniProt P02866)
# Sequence (P02866 whole entry, looked up): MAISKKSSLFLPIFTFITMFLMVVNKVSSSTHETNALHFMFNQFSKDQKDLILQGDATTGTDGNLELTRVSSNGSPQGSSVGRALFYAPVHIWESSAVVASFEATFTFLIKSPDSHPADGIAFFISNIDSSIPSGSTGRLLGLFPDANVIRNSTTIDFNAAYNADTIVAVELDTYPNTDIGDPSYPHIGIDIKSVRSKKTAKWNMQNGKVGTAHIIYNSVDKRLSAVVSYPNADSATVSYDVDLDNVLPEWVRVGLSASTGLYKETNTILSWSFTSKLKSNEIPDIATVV
# protocol.summary: ConA small-molecule binders, primary screen, artefact control for SMM control protein annotation, biochemical, small-molecule microarray, Alexa647 label, 635 nm (AID 1127);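 also: z combines 667 nm emission intensity with signal-to-noise across three replicate slides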
# condition.notes: ConA-A647 binding fluorescence, higher = more signal
Answers are plain numbers.

Completed entries (count: 3):
compound	composite z-score
CC(CCC(=O)OC[C@H]1O[C@H](C#Cc2ccccc2)C=C[C@@H]1Oc1ccc(C)cc1)=NOC(C)CN1CCCc2nc(C)c(C)cc21 (some centres undefined)	0.924
CON(C)C(=O)c1nnc2c(n1)[nH]c1ccccc12	0.293
CO[C@H]1COC(=O)CCC[C@H](C)[C@H](OC)COC(=O)CC=C[C@@H]1C	-0.362

Pending compound:
Please look up its composite z-score: COc1ccc(COC(=O)NN=C2C[C@@H](O)[C@@H](O)[C@@H]3[C@@H]4C(=O)N(c5cccc(Oc6ccccc6)c5)C(=O)[C@@H]4CC[C@H]23)cc1
0.433
